target_of_assay: T1, full-length recombinant human PAD4 (human, UniProt Q9UM07 1-663)
T1 construct: Full-length recombinant; also called peptidylarginine deiminase 4
protocol_notes: ELISA, immobilized human PAD4
endpoint_name: O.D. 490/630 at 1 µg/mL

humanized anti-PAD4 antibody derived from H7, VH H4.32 / VL L4.06 (antibody, IgG1, V domains shown, IgG1 kappa; also called H7 H4.32/L4.06) VH: EVQLLESGGGLVQPGGSLRLSCAASGFTFSTYAMGWVRQAPGKGLEFVAAIRNDGSWTGYGAAVKGRVTISRDNSKNTVYLQMNSLRAEDTAVYYCAKYTGSSGGSIGAWGQGTLVTVSS VL: SYELTQPPSVSVSPGQTARITCSGGSGRYYYGWYQQKPGQAPVTVIYSSTHRPSGIPERFSGSYSGNTTTLTISGVQAEDEADYYCGTADSSSYVFGGGTKLTVLG    1.77
humanized anti-PAD4 antibody derived from H7, VH H4.32 / VL L4.00 (antibody, IgG1, V domains shown, IgG1 kappa; also called H7 H4.32/L4.00) VH: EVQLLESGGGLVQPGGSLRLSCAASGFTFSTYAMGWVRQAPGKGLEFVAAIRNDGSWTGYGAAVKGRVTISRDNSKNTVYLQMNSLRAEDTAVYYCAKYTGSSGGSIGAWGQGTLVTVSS VL: SYELTQPPSVSVSPGQTARITCSGGSGRYYYGWYQQKPGQAPVLVIYSSTHRPSGIPERFSGSSSGTTVTLTISGVQAEDEADYYCGTADSSSYVFGGGTKLTVLG    1.82
humanized anti-PAD4 antibody derived from H7, VH H4.32 / VL L4.17 (antibody, IgG1, V domains shown, IgG1 kappa; also called H7 H4.32/L4.17) VH: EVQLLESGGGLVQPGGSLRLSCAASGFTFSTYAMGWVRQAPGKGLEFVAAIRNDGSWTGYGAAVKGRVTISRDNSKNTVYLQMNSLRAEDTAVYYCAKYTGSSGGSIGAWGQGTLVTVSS VL: SYELTQPPSVSVSPGQTARITCSGGSGRYYYGWYQQKPGQAPVTVIYSSTHRPSGIPERFSGSTSGNTTTLTISGVQAEDEADYYCGTADSSSYVFGGGTKLTVLG    1.79
